Hello, the source for this data is the Human Domainome abundance scans (Beltran et al. 2025), in case you need it.

B1: POU domain, class 3, transcription factor 2, residues 356 to 411; numbered along this chain, P20265 (parent)
chain: KKRTSIEVSVKGALESHFLKCPKPSAQEITSLADSLQLEKEVVRVWFCNRRQKEKR

Variants of: B1
Assay Name: abundance fitness (aPCA) (normalised: wild type 0, dead -1); higher = more abundant; growth selection in yeast, the domain comes from the species named
Assay Conditions: Homo sapiens
Values of abundance fitness greater than or equal to 0.03 map to Met; values below map to Not met.

> print(dat)
    mutation.label  qualitative.label
 1            L38I            Not met
 2             I6L                Met
 3            K11C            Not met
 4            E39C            Not met
 5             I6D            Not met
 6            W46Q            Not met
 7            D34K                Met
 8             S5V                Met
 9            G12L                Met
10            K23T                Met
